target: Voltage-gated potassium channel subunit beta-2 (Rattus norvegicus); assay: inhibitors of rat Kvbeta2 reductase activity – biochemical, NADPH fluorescence, primary screen (AID 622); settings: recombinant KvBeta, 4-cyanobenzaldehyde reduction, at 10 µM, active compounds read high;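 note: slope of raw intensity against log time taken from 70 to 1610 s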
Readout Name: fluorescence slope
One number for each entry.

See these solved cases before continuing.
| Structure Smiles | fluorescence slope |
| --- | --- |
| CC1(C)CC(=O)c2cnc(NC(=O)CCc3ccccc3)nc2C1 | -0.365 |
| O=C(c1ccc2c(c1)OCCO2)C1CCN(C(=O)c2ccc(F)cc2)CC1 | -0.514 |
| Cc1cc(C)c2c(n1)nn1c(N3CCOCC3)cc(C)nc21 | -0.0426 |
| COC(=O)c1ccc(CSc2nnc(-c3ccncc3)o2)o1 | -0.596 |
| Cn1c(CNc2nc(-c3ccccc3)cs2)nnc1SCC(=O)N1CCc2ccccc21 | -0.595 |

List reported fluorescence slope for each of these compounds:
1. CCCS(=O)(=O)N1CCN(C(=O)c2cccnc2)CC1
2. O=C(NCc1cccs1)c1cc2c(s1)-c1ccccc1OC2
3. Cc1ccc2nc(-c3ccc4c(c3)OCCO4)cc(C(=O)O)c2c1

-0.431
-0.122
-0.299
